The entries below are paired with their reported normalized growth.
# protocol_details: chemical genetic growth profiling, strain panel (AID 1159580);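 also: tested at 20 µM; growth read once vehicle control cultures reached saturation at 30 °C; 1 = growth at the plate median or of vehicle wells; lower values mean less growth of the strain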
# experimental_setup: S. cerevisiae deletion strains, growth OD, locus YNL209W, strain ssb2, hits give low values
Out of some 5,500 compounds screened, about 2,000 (36%) were called active. Roughly 18% stayed inconclusive and do not appear here. The list shows a part of the results.
Please respond with just the number, no unit label.

[[record]]
compound = "COC1=C(OC)C(=O)C(C/C=C(\\C)CC/C=C(\\C)CC/C=C(\\C)CC/C=C(/C)CC/C=C(\\C)CC/C=C(\\C)CC/C=C(\\C)CC/C=C(\\C)CC/C=C(\\C)CCC=C(C)C)=C(C)C1=O"
numeric_value = 0.971


Report normalized growth, nothing else, for this compound: C=C1C2CC[C@H]3[C@]4(C)C[C@H](OC5OC(CO)C(OS(=O)(=O)O)C(OS(=O)(=O)O)C5OC(=O)CC(C)C)C[C@@H](C(=O)O)[C@H]4CC[C@]3(C2)[C@H]1O (stereo partly specified)
1

Report normalized growth, nothing else, for this compound: c1cncc(C2CCCCN2)c1 (stereo unspecified)
0.991

Report normalized growth, nothing else, for this compound: CCOC(=O)[C@H](CCc1ccccc1)N[C@H]1CCc2ccccc2N(CC(=O)O)C1=O
0.98

Report normalized growth, nothing else, for this compound: CC1=C(C/C=C(\C)CCC[C@H](C)CCC[C@H](C)CCCC(C)C)C(=O)c2ccccc2C1=O
0.983

Report normalized growth, nothing else, for this compound: COc1cc(NS(=O)(=O)c2ccc(N)cc2)nc(OC)n1
0.97

----------
# protocol_details: chemical genetic growth profiling, strain panel (AID 1159580)
# experimental_setup: S. cerevisiae deletion strains, growth OD, locus YKL085W, strain MDH1 (second series)
The campaign covered roughly 5,500 compounds. About 2,000 (36%) were called active. About 18% were inconclusive and are not listed. Rule as the data show it: active = normalized growth mostly below about 0.91 (no sharp cut-off); inconclusive = no clear call, values can overlap the other calls; inactive = mostly above about 0.92. The list shows a part of the results.
Permitted responses: t = active, f = inactive

Completed entries (count: 3):
[[record]]
compound = "CC(CCc1ccccc1)NC(C)C(O)c1ccc(O)cc1 (configuration not stated)"
discrete_label = "f"

[[record]]
compound = "CN(C)CC/C=C1\\c2ccccc2Sc2ccc(Cl)cc21"
discrete_label = "f"

[[record]]
compound = "COc1ccc(OC)c(C(O)C(C)N)c1 (configuration not stated)"
discrete_label = "f"


Query: recorded result category for CC(C(=O)O)c1ccc(-c2ccccc2)c(F)c1 (configuration not stated) in this test
t

Query: recorded result category for CCC(C)C(=O)O[C@H]1[C@H](O)C2C(CN3CC(C)CCC3[C@@]2(C)O)C2C[C@]34O[C@]5(O)C(OC(=O)C(C)(O)C(C)O)CC[C@@]3(C)C5C(OC(C)=O)[C@@H](OC(C)=O)C4[C@@]21O (some centres not stated) in this test
f

Query: recorded result category for CN[C@@H](C)[C@@H](O)c1ccccc1 in this test
f

Query: recorded result category for COC1=C(OC)C(=O)C(C/C=C(\C)CC/C=C(\C)CC/C=C(\C)CC/C=C(/C)CC/C=C(\C)CC/C=C(\C)CC/C=C(\C)CC/C=C(\C)CC/C=C(\C)CCC=C(C)C)=C(C)C1=O in this test
f

----------
# protocol_details: chemical genetic growth profiling, strain panel (AID 1159580)
# experimental_setup: S. cerevisiae deletion strains, growth OD, locus YGR078C, strain PAC10, hits give low values
Screen size: about 5,500 compounds; about 2,000 (36%) were called active. Roughly 18% stayed inconclusive and do not appear here. The list shows a part of the results.
In plain terms, low normalized growth, meaning strictly below 1, gives T, and everything else gives F.

Completed entries (count: 3):
[[record]]
molecule = "CCN(CC)CCCC(C)Nc1c2ccc(Cl)cc2nc2ccc(OC)cc12 (stereo not given)"
discrete_label = "T"

[[record]]
molecule = "CCN(CCO)CCCC(C)Nc1ccnc2cc(Cl)ccc12 (stereo not given)"
discrete_label = "F"

[[record]]
molecule = "CCC(=O)O[C@H]1[C@H](O[C@@H]2[C@@H](C)[C@H](O[C@H]3C[C@@](C)(OC)[C@@H](O)[C@H](C)O3)[C@@H](C)C(=O)O[C@H](CC)[C@@](C)(O)[C@H](O)[C@@H](C)C(=O)[C@H](C)C[C@@]2(C)O)O[C@H](C)C[C@@H]1N(C)C"
discrete_label = "T"


With those in mind, consider the next molecule.
Just wondering, is normalized growth of O=C1C=CC(=C(c2ccc(O)cc2)c2ccc(O)cc2)C=C1 below 1?
F

----------
# protocol_details: chemical genetic growth profiling, strain panel (AID 1159580);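 also: tested at 20 µM; growth read once vehicle control cultures reached saturation at 30 °C; 1 = growth at the plate median or of vehicle wells; lower values mean less growth of the strain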
# experimental_setup: S. cerevisiae deletion strains, growth OD, locus YMR307W, strain GAS1, hits give low values
The whole screen tested about 5,500 compounds, of which about 2,000 (36%) were called active. Not shown: some 18% with an inconclusive outcome. The list shows a part of the results.
In plain terms, low normalized growth, meaning strictly below 1, gives true, and everything else gives false.

[[record]]
compound = "C=Cc1c2[nH]c(c1C)C=c1[nH]c(c(C)c1C=C)=CC1N=C(C=c3[nH]c(c(C)c3CCC(=O)O)=C2)C(CCC(=O)O)=C1C (stereo not drawn)"
discrete_label = "true"

[[record]]
compound = "c1ccc(N=Nc2ccccc2)cc1"
discrete_label = "true"

[[record]]
compound = "CN[C@@H](C)[C@@H](O)c1ccccc1"
discrete_label = "true"

[[record]]
compound = "CC(CCc1ccc(O)cc1)NCCc1ccc(O)c(O)c1 (stereo not drawn)"
discrete_label = "true"

[[record]]
compound = "Cc1c(O)c(C(=O)CC(C)C)c2oc3c(C(=O)CC(C)C)c(O)c(C)c(O)c3c2c1O"
discrete_label = "true"

[[record]]
compound = "CC(CCc1ccccc1)NC(C)C(O)c1ccc(O)cc1 (stereo not drawn)"
discrete_label = "false"


With those in mind, consider the next compound.
Just wondering, is normalized growth of CC(NCCc1ccc(O)cc1)C(O)c1ccc(O)cc1 (stereo not drawn) below 1?
true

----------
# protocol_details: chemical genetic growth profiling, strain panel (AID 1159580);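 also: tested at 20 µM; growth read once vehicle control cultures reached saturation at 30 °C; 1 = growth at the plate median or of vehicle wells; lower values mean less growth of the strain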
# experimental_setup: S. cerevisiae deletion strains, growth OD, locus YFL009W, strain cdc4, hits give low values
In all, about 5,500 compounds went through this assay and about 2,000 (36%) were called active. Inconclusive results (about 18%) are left out. Some of the results follow.
assay_metric: normalized growth
Please respond with just the number, no unit label.

[[record]]
molecule = "Cc1ccc(-c2csc(-c3cccnc3)n2)c(C)c1"
numeric_value = 0.954

[[record]]
molecule = "O=C(CSc1nnnn1-c1ccccc1)c1ccccc1"
numeric_value = 0.949

[[record]]
molecule = "O=S(=O)(Nc1cccc(CCc2ccccn2)c1)c1cc(Cl)c(Cl)cc1Cl"
numeric_value = 0.989

[[record]]
molecule = "O=S(=O)(Nc1cccc2nsnc12)c1cc(Cl)sc1Cl"
numeric_value = 0.947


Report normalized growth, nothing else, for this molecule: Cc1ccc2nc(-c3ccc(Cl)cc3)cn2c1
0.967

Report normalized growth, nothing else, for this molecule: Cc1ccc(OCC2SCCN2C(=O)c2ccc(C(F)(F)F)cc2)c([N+](=O)[O-])c1 (stereo unspecified)
1.02

----------
# protocol_details: chemical genetic growth profiling, strain panel (AID 1159580);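 also: tested at 20 µM; growth read once vehicle control cultures reached saturation at 30 °C; 1 = growth at the plate median or of vehicle wells; lower values mean less growth of the strain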
# experimental_setup: S. cerevisiae deletion strains, growth OD, locus YER111C, strain swi4
The whole screen tested about 5,500 compounds, of which about 2,000 (36%) were called active. Another 18% or so got no clear call; they are omitted. Rule as the data show it: active = normalized growth mostly below about 0.91 (no sharp cut-off); inconclusive = no clear call, values can overlap the other calls; inactive = mostly above about 0.92. This is one part of the list.
Permitted responses: true = active, false = inactive

Completed entries (count: 10):
[[record]]
molecule = "CC1=C(/C=C/C(C)=C/C=C/C(C)=C/C=C/C=C(C)/C=C/C=C(C)/C=C/C2=C(C)C(=O)CCC2(C)C)C(C)(C)CCC1=O"
discrete_label = "false"

[[record]]
molecule = "c1cncc(C2CCCCN2)c1 (centres undefined)"
discrete_label = "false"

[[record]]
molecule = "COc1cc2c(cc1OC)[C@@H]1C(=O)c3ccc4oc(C(C)C)cc4c3O[C@@H]1CO2"
discrete_label = "false"

[[record]]
molecule = "CC(C)OC(=O)C(C)(C)Oc1ccc(C(=O)c2ccc(Cl)cc2)cc1"
discrete_label = "false"

[[record]]
molecule = "CCOC(=O)C(C)(C)Oc1ccc(Cl)cc1"
discrete_label = "false"

[[record]]
molecule = "CC(C(=O)O)c1cccc(C(=O)c2ccccc2)c1 (centres undefined)"
discrete_label = "false"

[[record]]
molecule = "c1ccc(N=Nc2ccccc2)cc1"
discrete_label = "false"

[[record]]
molecule = "CC(=O)N[C@@H](CC(C)C)C(=O)O"
discrete_label = "false"

[[record]]
molecule = "CC(N)C(=O)OC(C)(C)Cc1ccc(Cl)cc1 (centres undefined)"
discrete_label = "false"

[[record]]
molecule = "CN1CCc2cc3c(cc2[C@H]1C1OC(=O)c2c1ccc1c2OCO1)OCO3 (some centres undefined)"
discrete_label = "false"


Query: recorded result category for CC1=C(/C=C/C(C)=C/C=C/C(C)=C/C=C/C=C(C)/C=C/C=C(C)/C=C/C2=C(C)C(=O)C(O)CC2(C)C)C(C)(C)CC(O)C1=O (centres undefined) in this test
false

Query: recorded result category for CC1CC2C3CC(F)C4=CC(=O)C=CC4(C)C3(F)C(O)CC2(C)C1(O)C(=O)CO (centres undefined) in this test
false

Query: recorded result category for NCC1CCC(C(=O)O)CC1 (centres undefined) in this test
false

Query: recorded result category for CC1=C(C/C=C(\C)CCC[C@H](C)CCC[C@H](C)CCCC(C)C)C(=O)c2ccccc2C1=O in this test
false

Query: recorded result category for CC(C)c1c(C(=O)c2ccccc2)c(-c2ccccc2)c(-c2ccc(F)cc2)n1CC[C@@H](O)C[C@@H](O)CC(=O)O in this test
false

Data credit: PubChem BioAssay AID1159580
